The values you see were collected from ChEMBL document CHEMBL2346600.

Target: Hexokinase-4 (Homo sapiens, UniProt P35557)
Sequence (P35557 whole entry): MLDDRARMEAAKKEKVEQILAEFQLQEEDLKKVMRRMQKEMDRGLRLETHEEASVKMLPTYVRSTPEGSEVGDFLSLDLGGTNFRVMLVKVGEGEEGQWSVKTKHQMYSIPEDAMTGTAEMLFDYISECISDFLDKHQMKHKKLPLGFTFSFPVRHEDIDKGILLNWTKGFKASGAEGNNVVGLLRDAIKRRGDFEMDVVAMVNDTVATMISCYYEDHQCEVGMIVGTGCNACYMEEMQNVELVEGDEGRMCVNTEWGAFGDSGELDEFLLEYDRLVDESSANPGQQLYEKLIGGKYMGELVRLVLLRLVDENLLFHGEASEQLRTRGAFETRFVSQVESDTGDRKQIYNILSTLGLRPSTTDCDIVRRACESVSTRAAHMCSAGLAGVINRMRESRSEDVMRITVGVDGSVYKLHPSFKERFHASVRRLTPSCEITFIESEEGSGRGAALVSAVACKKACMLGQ
Test: Activation of glucokinase (unknown origin)
pEC50: −log10 of the molar value.
Binary call on pEC50: met from 6 upward, not met beneath that.

Check if pEC50 >= 6 (inclusive). Item: Cc1cc(S(=O)(=O)C2CCCC2)cc(=O)n1[C@@H](CC1CCCCO1)C(=O)Nc1ncc(F)s1 (some centres undefined)
met

Record CC(C)CC(C(=O)Nc1nccs1)n1c(=O)[nH]c2ccccc2c1=O (racemic) ; criterion: pEC50 no lower than 6. Met?
not met

Decide: is the reported value of pEC50 for Cc1cccc(S(=O)(=O)N2CCN([C@@H](CC3CCCCC3)C(=O)Nc3nccs3)C(=O)C2)c1 equal to or greater than 6?
met

Form field: pEC50 at least 6? Entry: CS(=O)(=O)N1CCN([C@@H](CC2CCCCO2)C(=O)Nc2ncc(Cl)s2)C(=O)C1 (some centres undefined)
not met

Please tell me: is the compound CCS(=O)(=O)c1ccc2c(=O)n([C@@H](CC3CCCCO3)C(=O)Nc3ncc(F)s3)cnc2c1 (some centres undefined) at or over 6 in terms of pEC50?
not met

Could you verify whether the entry O=C(Nc1nccs1)[C@H](CC1CCCCC1)n1c(=O)[nH]c2ccccc2c1=O shows pEC50 of no less than 6?
not met

Is pEC50 at least 6? Consider Cc1cc(S(=O)(=O)C2CC2)cc(=O)n1[C@@H](CC1CCCC1)C(=O)Nc1ncc(Cl)s1
met

Check if pEC50 >= 6 (inclusive). Item: O=C(Nc1nccs1)[C@H](CC1CCCCC1)n1cnc2ccccc2c1=O
not met
